Data provenance is ChEMBL document CHEMBL4699498.

# protocol summary: Plasma concentration in ICR mouse at 25 mg/kg, ip at 4 hrs postinjection by LC-tandem mass spectrometry analysis
# Format: ADME, organism-based
property: concentration at 4 h (nM)
Your answer is read as nM, so omit the unit and give the number.

Task: # input compound: O=C(CCCCCCCCCCC(=O)N1CCN(C(=O)c2cc(Cc3n[nH]c(=O)c4ccccc34)ccc2F)CC1)NCCNc1cccc2c1C(=O)N(C1CCC(=O)NC1=O)C2=O (stereo unspecified) ; wanted: its concentration at 4 h
Output: 182

###

# protocol summary: Plasma concentration in ICR mouse at 25 mg/kg, ip at 0.25 hrs postinjection by LC-tandem mass spectrometry analysis
# Assay type: ADME, organism-based
property: concentration at 0.25 h (nM)
Numeric only. Scale: nM

Task: What value of concentration at 0.25 h has been recorded for this entry: O=C(CCCCCCCCCCC(=O)N1CCN(C(=O)c2cc(Cc3n[nH]c(=O)c4ccccc34)ccc2F)CC1)NCCNc1cccc2c1C(=O)N(C1CCC(=O)NC1=O)C2=O (stereo unspecified)
Output: 2100
